# Test system: Jurkat cells
# protocol description: IL-2 release Jurkat assay (anti-CD3/anti-CD28 stimulation, IL-2 ELISA)
# Format: cell-based, human
# measurement context: Table B: Jurkat, 1.5 μM of tested compounds, activation with 400 ng/mL aCD3 + 400 ng/mL aCD28, 24 hours
measured attribute: IL-2, pg/mL stimulated

Example cases with answers are listed next.
| chemical smiles | IL-2, pg/mL stimulated |
| --- | --- |
| CNC(=O)c1cnc(Nc2ccc3c(c2)CCN(C)C3=O)nc1N[C@H](CO)c1ccccc1 | D (35.0 pg/mL≤IL-2) |
| CCOC(=O)c1cnc(Nc2ccc(S(C)(=O)=O)cc2)nc1N[C@H](CO)c1ccccc1 | D (35.0 pg/mL≤IL-2) |
| CNC(=O)c1cnc(Nc2ccc(S(C)(=O)=O)c(C)c2)nc1N[C@H](CO)c1ccccc1 | D (35.0 pg/mL≤IL-2) |
| Cc1cc(Nc2ncc(C(=O)NC(C)C)c(N[C@H](CO)c3ccccc3)n2)ccc1S(C)(=O)=O | D (35.0 pg/mL≤IL-2) |

// moving on: another record for IL-2, pg/mL stimulated
Prompt line: Which measured IL-2, pg/mL stimulated value corresponds to CC(C)NC(=O)c1cnc(Nc2ccc(F)c(-c3ccccc3)c2)nc1N[C@H](CO)c1ccccc1 ?
Response line: D (35.0 pg/mL≤IL-2)

###

# subject of test: recombinant HPK1 protein (Homo sapiens, UniProt Q92918)
# Sequence (Q92918 1-346 limits assumed): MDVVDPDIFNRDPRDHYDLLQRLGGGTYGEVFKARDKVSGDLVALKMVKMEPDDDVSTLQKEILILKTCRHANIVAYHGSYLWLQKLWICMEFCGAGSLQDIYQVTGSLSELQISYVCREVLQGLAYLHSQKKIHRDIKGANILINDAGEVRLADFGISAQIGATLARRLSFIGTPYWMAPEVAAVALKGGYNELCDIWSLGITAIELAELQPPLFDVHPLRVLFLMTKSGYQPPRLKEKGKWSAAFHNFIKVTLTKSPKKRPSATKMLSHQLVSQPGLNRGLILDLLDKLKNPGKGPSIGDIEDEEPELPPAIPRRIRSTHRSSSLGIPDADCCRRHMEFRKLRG
# protocol description: Primary assay of HPK1 enzymatic activity inhibition (ADP-Glo luminescence)
# measurement context: recombinant HPK1, MBP substrate, 1 hour at room temperature
measured attribute: IC50

| compound | subject of test | IC50 |
| --- | --- | --- |
| CCOC(=O)c1cnc(Nc2ccc3c(c2)CCCS3(=O)=O)nc1N[C@H](CO)c1ccccc1 [Compound 573] | recombinant HPK1 protein (Homo sapiens, UniProt Q92918) | < 50 nM |
| CNC(=O)c1cnc(Nc2ccc(S(C)(=O)=O)c(F)c2)nc1N[C@H](CO)c1ccccc1 [Compound 105] | recombinant HPK1 protein (Homo sapiens, UniProt Q92918) | 50 to 200 nM |
| CCOC(=O)c1cnc(Nc2ccc(C(=O)N(C)C)c(C)c2)nc1N[C@H](CO)c1ccccc1 [Compound 125] | recombinant HPK1 protein (Homo sapiens, UniProt Q92918) | 200 to 500 nM |
| CCOC(=O)c1cnc(Nc2ccc(S(C)(=O)=O)c(F)c2)nc1N[C@H]1c2ccccc2C[C@H]1O [Compound 298] | recombinant HPK1 protein (Homo sapiens, UniProt Q92918) | ≥ 500 nM |
| CNC(=O)c1cnc(Nc2ccc3c(c2)CCN(C)C3=O)nc1N[C@H](CO)c1ccccc1 [Compound 43] | recombinant HPK1 protein (Homo sapiens, UniProt Q92918) | 50 to 200 nM |

Prompt line: Quick one: IC50 of N#Cc1cnc(Nc2ccc3c(c2)CCNC3=O)nc1N[C@H](CO)c1ccccc1 [Compound 567] ?
Response line: ≥ 500 nM

Prompt line: IC50 for O=C(NC1CCCC1)c1cnc(Nc2ccc(C(F)(F)F)c(Cl)c2)nc1N[C@H](CO)c1ccccc1 [Compound 472] ?
Response line: ≥ 500 nM

Prompt line: Entry under review: CS(=O)(=O)c1ccc(Nc2ncc3[nH]c(=O)n([C@H](CO)c4ccccc4)c3n2)cc1F [Compound 577] . Reported IC50?
Response line: ≥ 500 nM

Prompt line: Look up IC50: CCOC(=O)c1cnc(Nc2ccc3c(c2)NC(=O)CCC3)nc1N[C@H](CO)c1ccccc1 [Compound 574]
Response line: ≥ 500 nM

Prompt line: Would you kindly share the measured IC50 for CCOC(=O)c1cnc(Nc2ccc3c(c2)C(=O)NC(C(C)C)C(=O)N3)nc1N[C@H](CO)c1ccccc1 (stereo partly shown) [Compound 467] ?
Response line: ≥ 500 nM

Prompt line: IC50 for Cc1cc(Nc2ncc(C(=O)NC3CCCC3)c(N[C@H](CO)c3ccccc3)n2)ccc1S(C)(=O)=O [Compound 434] ?
Response line: 200 to 500 nM

Prompt line: Recorded IC50 of CNC(=O)c1cnc(Nc2ccc(S(C)(=O)=O)c(C)c2)nc1N[C@H](CO)c1ccccc1 [Compound 65] , please.
Response line: 50 to 200 nM

Prompt line: Entry Cc1noc(-c2cnc(Nc3ccc4c(c3)CCN(C)C4=O)nc2N[C@H](CO)c2ccccc2)n1 [Compound 183] : reported IC50 = ?
Response line: < 50 nM

Prompt line: // query IC50 value for entry CCOC(=O)c1cnc(Nc2ccc(F)c(-c3ccccc3)c2)nc1N[C@H](CO)c1ccccc1 [Compound 195]
Response line: 200 to 500 nM

Prompt line: What does the record list as IC50 for CCOC(=O)c1cnc(Nc2ccc3c(c2)CCNC3=O)nc1N[C@H](CO)c1ccc(OC)cc1 [Compound 569] ?
Response line: < 50 nM

Prompt line: Query: IC50; subject: CCOC(=O)c1cnc(Nc2ccc3c(c2)CCNC3=O)nc1N[C@H](CO)c1cccc(OC)c1 [Compound 570]
Response line: < 50 nM

Prompt line: Looking for the measured IC50 of CCOC(=O)c1cnc(Nc2ccc(S(=O)(=O)CC)cc2)nc1N[C@H](CO)c1ccccc1 [Compound 168] , can you help?
Response line: 50 to 200 nM

Prompt line: I am curious: what IC50 value has been reported for Cc1cc(Nc2ncc([N+](=O)[O-])c(N[C@H](CO)c3ccccc3)n2)ccc1S(C)(=O)=O [Compound 18] ?
Response line: 200 to 500 nM

Prompt line: Fill in: IC50 of CN(CCO)C(=O)c1cnc(Nc2ccc(S(C)(=O)=O)c(F)c2)nc1N[C@H](CO)c1ccccc1 [Compound 402] is ___
Response line: ≥ 500 nM

Prompt line: I am curious: what IC50 value has been reported for CCOC(=O)c1cnc(Nc2ccc(C(=O)NC)c(C)c2)nc1N[C@H](CO)c1ccccc1 [Compound 48] ?
Response line: ≥ 500 nM

Prompt line: Suppose we examine the compound CCOC(=O)c1cnc(Nc2ccc3c(c2)CCCNC3=O)nc1N[C@H](CO)c1ccccc1 [Compound 566] ; what IC50 value has been reported?
Response line: < 50 nM

Prompt line: Find the recorded IC50 belonging to CN1CCc2cc(Nc3ncc(-c4nnco4)c(N[C@H](CO)c4ccccc4)n3)ccc2C1=O [Compound 89] and report it.
Response line: < 50 nM

Prompt line: // returns reported IC50 for input CCOC(=O)c1cnc(Nc2ccc(C(N)=O)c(Cl)c2)nc1N[C@H](CO)c1ccccc1 [Compound 559]
Response line: < 50 nM

Prompt line: Look at this compound and give its reported IC50. CCOC(=O)c1cnc(Nc2ccc3c(c2)CCN(C(C)C)C3=O)nc1N[C@H](CO)c1ccccc1 [Compound 316]
Response line: ≥ 500 nM

###

Recorded pIC50 values for a group of molecules are listed next.
# subject of test: recombinant HPK1 protein (Homo sapiens)
# Construct: purchased Promega V6398
# protocol description: Primary assay of HPK1 enzymatic activity inhibition (ADP-Glo luminescence)
# Format: biochemical
# measurement context: recombinant HPK1, MBP substrate, 1 hour at room temperature
pIC50: −log10 of the molar value.

| chemical smiles | subject of test | pIC50 |
| --- | --- | --- |
| Cc1cc(Nc2ncc(C(=O)N(C)C)c(N[C@H](CO)c3ccccc3)n2)ccc1S(C)(=O)=O | recombinant HPK1 protein (Homo sapiens) | 6.30 to 6.70 |
| Cc1noc(-c2cnc(Nc3ccc4c(c3)CCN(COCC[Si](C)(C)C)C4=O)nc2N[C@H](CO)c2ccccc2)n1 | recombinant HPK1 protein (Homo sapiens) | 6.70 to 7.30 |
| CCOC(=O)c1cnc(Nc2ccc(C(=O)O)c(OC)c2)nc1N[C@H](CO)c1ccccc1 | recombinant HPK1 protein (Homo sapiens) | 6.30 to 6.70 |
| O=C(NC1CCCC1)c1cnc(Nc2ccc(F)c(-c3ccccc3)c2)nc1N[C@H](CO)c1ccccc1 | recombinant HPK1 protein (Homo sapiens) | ≤ 6.30 |
| Cc1noc(-c2cnc(Nc3ccc4c(c3)C(C)(C)NC4=O)nc2N[C@H](CO)c2ccccc2)n1 | recombinant HPK1 protein (Homo sapiens) | > 7.30 |
| O=C(NCC(F)(F)F)c1cnc(Nc2ccc(F)c(-c3ccccc3)c2)nc1N[C@H](CO)c1ccccc1 | recombinant HPK1 protein (Homo sapiens) | 6.30 to 6.70 |
| CS(=O)(=O)c1ccc(Nc2ncc(C(=O)O)c(N[C@H](CO)c3ccccc3)n2)cc1F | recombinant HPK1 protein (Homo sapiens) | ≤ 6.30 |
| CC(C)NC(=O)c1cnc(Nc2ccc3c(c2)CCN(C)C3=O)nc1N[C@H](CO)c1ccccc1 | recombinant HPK1 protein (Homo sapiens) | 6.70 to 7.30 |
| CCOC(=O)c1cnc(Nc2ccc3c(c2)CCNC3=O)nc1N[C@@H](CO)c1ccccc1 | recombinant HPK1 protein (Homo sapiens) | 6.70 to 7.30 |
| CCOC(=O)c1cnc(Nc2ccc(S(C)(=O)=O)c(OC)c2)nc1N[C@H](CO)c1ccccc1 | recombinant HPK1 protein (Homo sapiens) | 6.70 to 7.30 |

Prompt line: // returns reported pIC50 for input CCOC(=O)c1cnc(Nc2ccc(S(=O)(=O)C(C)C)cc2)nc1N[C@H](CO)c1ccccc1
Response line: 6.30 to 6.70
